Target: Cytochrome P450 2C19 (Homo sapiens) (UniProt P33261)
Sequence (P33261 whole entry, looked up): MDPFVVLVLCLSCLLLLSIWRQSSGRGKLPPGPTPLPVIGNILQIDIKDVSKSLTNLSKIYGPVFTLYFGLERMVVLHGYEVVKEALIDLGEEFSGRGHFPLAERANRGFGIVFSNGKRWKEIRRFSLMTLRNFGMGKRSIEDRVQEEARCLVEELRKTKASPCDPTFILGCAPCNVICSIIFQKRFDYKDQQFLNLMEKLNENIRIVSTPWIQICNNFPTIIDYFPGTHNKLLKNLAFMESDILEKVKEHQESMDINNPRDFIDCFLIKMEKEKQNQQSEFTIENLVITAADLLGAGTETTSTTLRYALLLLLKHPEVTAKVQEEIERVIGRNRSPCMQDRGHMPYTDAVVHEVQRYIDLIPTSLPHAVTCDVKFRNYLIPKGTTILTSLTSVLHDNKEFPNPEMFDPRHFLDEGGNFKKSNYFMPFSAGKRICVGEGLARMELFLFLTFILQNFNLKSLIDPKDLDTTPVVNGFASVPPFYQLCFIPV
Assay: Cytochrome panel assay with activity outcomes
Settings: recombinant CYP, pro-luciferin dealkylation, luminescence, p450-cyp2c19; series mostly up to 57.1 µM
Protocol: The P450 gene superfamily is involved in the metabolism and clearance of xenobiotics. This assay used various human CYP P450 isozymes to measure the dealkylation of various pro-luciferin substrates to luciferin. The luciferin is then measured by luminescence after the addition of a luciferase detection reagent. […] Inhibitors and some substrates limit the production of luciferin, and decrease measured luminescence. […] 8, Detection, 1 sec, ViewLux luminescent read […]
The whole screen tested about 16,000 compounds, of which about 5,800 (36%) were called active. Another 23% or so got no clear call; they are omitted. The call rests on the fitted dose curve; in most records, active means well fitted curve in the direction sought with a large enough effect; inconclusive means small, poorly fitted or top-dose-only effect, or effect the other way; inactive means no such curve, though single readings can be large or run the other way. This is one part of the list.
Outcomes: True for active, False for inactive

{"compound": "C/C(CCC(=O)OC[C@@H]1O[C@H](C#Cc2ccccc2)C=C[C@@H]1Oc1ccc(C)cc1)=N/O[C@@H](C)c1cn([C@H](CO)Cc2ccccc2)nn1", "target.system": "Cytochrome P450 2C19 (Homo sapiens) (UniProt P33261)", "discrete.label": "True"}
{"compound": "C[C@@H](C(=O)NCCc1c[nH]c2ccccc12)[C@@H]1C[C@@]1(C)[C@@H](NC(=O)OCc1ccccc1)c1ccccc1", "target.system": "Cytochrome P450 2C19 (Homo sapiens) (UniProt P33261)", "discrete.label": "True"}
{"compound": "COc1ccc(Oc2ncc3nc(-c4cccc(C#N)c4)c(=O)n(Cc4cccc(OC)c4)c3n2)cc1", "target.system": "Cytochrome P450 2C19 (Homo sapiens) (UniProt P33261)", "discrete.label": "False"}
{"compound": "CN(C)c1ncc2ncc(=O)n(Cc3cccs3)c2n1", "target.system": "Cytochrome P450 2C19 (Homo sapiens) (UniProt P33261)", "discrete.label": "True"}
{"compound": "CCCC(=O)NCCc1c2n(c3ccc(OC)cc13)Cc1ccccc1-2", "target.system": "Cytochrome P450 2C19 (Homo sapiens) (UniProt P33261)", "discrete.label": "True"}
{"compound": "CC(C)NC(=O)N1CCC2(CC1)CCN(C(=O)c1cccc(F)c1)CC2", "target.system": "Cytochrome P450 2C19 (Homo sapiens) (UniProt P33261)", "discrete.label": "False"}
{"compound": "Cc1cc2c(cc1C)NC1=C(N2)O[C@H](c2c[nH]c3ccc(COc4ccccc4)cc23)C1=O", "target.system": "Cytochrome P450 2C19 (Homo sapiens) (UniProt P33261)", "discrete.label": "True"}
{"compound": "CCCn1nc2cc(C(=O)NCCCCc3ccccc3)ccc2c1OCC", "target.system": "Cytochrome P450 2C19 (Homo sapiens) (UniProt P33261)", "discrete.label": "True"}
{"compound": "CCCC[C@@H]1C[C@H]1C(NC(=O)c1ccccc1)c1ccccc1 (stereo not given in full)", "target.system": "Cytochrome P450 2C19 (Homo sapiens) (UniProt P33261)", "discrete.label": "True"}
{"compound": "CC(C)c1nnc(-c2ccc(Cl)cc2)c(N(C)C)n1", "target.system": "Cytochrome P450 2C19 (Homo sapiens) (UniProt P33261)", "discrete.label": "True"}
{"compound": "CN(C)c1ncc2nc(-c3ccc(Cl)cc3)c(=O)n(C)c2n1", "target.system": "Cytochrome P450 2C19 (Homo sapiens) (UniProt P33261)", "discrete.label": "False"}
{"compound": "CCCCCCCCN1C(=O)N(C)C(N(O)C(=O)NC)C1(C)C (stereo not given)", "target.system": "Cytochrome P450 2C19 (Homo sapiens) (UniProt P33261)", "discrete.label": "True"}
{"compound": "O=C(NCc1cccnc1)c1sc2cc(Cl)ccc2c1Cl", "target.system": "Cytochrome P450 2C19 (Homo sapiens) (UniProt P33261)", "discrete.label": "True"}
{"compound": "COC(=O)Cc1c(C)nc2nc(NCc3ccccc3OC)[nH]n2c1=O", "target.system": "Cytochrome P450 2C19 (Homo sapiens) (UniProt P33261)", "discrete.label": "False"}
{"compound": "COc1ccc(/C=C(\\C#N)C(=O)NCC2CCCO2)cc1OC (stereo not given)", "target.system": "Cytochrome P450 2C19 (Homo sapiens) (UniProt P33261)", "discrete.label": "False"}
{"compound": "O=S(=O)(CC(O)COc1ccccc1Cl)c1ccccc1 (stereo not given)", "target.system": "Cytochrome P450 2C19 (Homo sapiens) (UniProt P33261)", "discrete.label": "True"}
{"compound": "Cc1[nH]n(C(C)(C)C)c(=O)c1Sc1ccc(Cl)cc1", "target.system": "Cytochrome P450 2C19 (Homo sapiens) (UniProt P33261)", "discrete.label": "True"}
{"compound": "C[C@@H](C(=O)NCCc1c[nH]c2ccccc12)[C@H]1C[C@]1(C)[C@H](NC(=O)OCc1ccccc1)c1ccccc1", "target.system": "Cytochrome P450 2C19 (Homo sapiens) (UniProt P33261)", "discrete.label": "True"}
{"compound": "COc1cccc(Cn2c(=O)c(-c3cccc(C#N)c3)nc3cnc(Nc4ccccc4)nc32)c1", "target.system": "Cytochrome P450 2C19 (Homo sapiens) (UniProt P33261)", "discrete.label": "False"}
{"compound": "Cn1c([N+](=O)[O-])cnc1COC(N)=O", "target.system": "Cytochrome P450 2C19 (Homo sapiens) (UniProt P33261)", "discrete.label": "False"}
{"compound": "COc1cccc(Cn2c(=O)c(-c3cccc(C#N)c3)nc3cnc(OC)nc32)c1", "target.system": "Cytochrome P450 2C19 (Homo sapiens) (UniProt P33261)", "discrete.label": "True"}
{"compound": "O=C(Nc1ccccc1)C(Cc1ccccc1)NC(=O)C12CC3CC(CC(C3)C1)C2 (stereo not given)", "target.system": "Cytochrome P450 2C19 (Homo sapiens) (UniProt P33261)", "discrete.label": "False"}
{"compound": "CC1(C)CCCN(C(=O)N2c3ccccc3Sc3ccccc32)C1", "target.system": "Cytochrome P450 2C19 (Homo sapiens) (UniProt P33261)", "discrete.label": "True"}
{"compound": "CCOc1cc(/C=C2\\C(=O)N(Cc3ccc(C)cc3)C(C)=C2C(=O)OC)ccc1O", "target.system": "Cytochrome P450 2C19 (Homo sapiens) (UniProt P33261)", "discrete.label": "True"}
{"compound": "COc1cccc(Cn2c(=O)c(CCc3ccccc3)nc3cnc(OC)nc32)c1", "target.system": "Cytochrome P450 2C19 (Homo sapiens) (UniProt P33261)", "discrete.label": "True"}

====

target: Cytochrome P450 2C19 (Homo sapiens) (UniProt P33261); experiment: Cytochrome panel assay with activity outcomes; conditions: recombinant CYP, pro-luciferin dealkylation, luminescence, p450-cyp2c19; series mostly up to 57.1 µM
Screen size: about 16,000 compounds; about 5,800 (36%) were called active. About 23% were inconclusive and are not listed. Calls follow the shape of the dose curve; as a rule, active = well fitted curve in the direction sought with a large enough effect; inconclusive = small, poorly fitted or top-dose-only effect, or effect the other way; inactive = no such curve, though single readings can be large or run the other way. This is one part of the list.
Outcomes: t for active, f for inactive

{"molecule": "COc1cccc(-c2cncnc2Nc2ccc(F)cc2)c1", "discrete.label": "t"}
{"molecule": "O=C(O)Cc1cc(I)c(Oc2ccc(O)c(I)c2)c(I)c1", "discrete.label": "f"}
{"molecule": "CC(=O)Nc1ccc(S(=O)(=O)NCCc2ccc(F)cc2)cc1", "discrete.label": "t"}
{"molecule": "Cc1nc(S(=O)(=O)NC2CCCCC2)c(C#N)c(C)c1Cl", "discrete.label": "t"}
{"molecule": "C#CCn1c(S(=O)(=O)Cc2ccc(OC)cc2)nc(-c2ccccc2)c1-c1ccccc1", "discrete.label": "t"}
{"molecule": "COc1ccc(N2C(=O)c3ccccc3NC2c2ccc(OC)c(CSc3ccccn3)c2)cc1 (centres undefined)", "discrete.label": "t"}
{"molecule": "CCN(CC)C(=O)c1ccc(O)c(OC)c1", "discrete.label": "f"}
{"molecule": "COc1ccc(S(=O)(=O)Nc2cccc(Cl)c2)cc1OC", "discrete.label": "t"}
{"molecule": "COC(=O)c1cc(Br)c(=O)n(CCc2ccc(O)cc2)c1", "discrete.label": "t"}
{"molecule": "COc1ccccc1-c1nc(N2CCN(C)CC2)c2ccccc2n1", "discrete.label": "f"}
{"molecule": "Cc1ccc(CNC(=O)Cc2csc(Nc3nc(=S)[nH]c4ccccc34)n2)cc1", "discrete.label": "t"}
{"molecule": "COc1ncc2nc(-c3cn(C)c4ccccc34)c(=O)n(-c3ccccc3)c2n1", "discrete.label": "f"}
{"molecule": "Cc1ccc(C(=O)Nc2ccc3nccnc3c2)cc1", "discrete.label": "t"}
{"molecule": "COc1ccccc1N1CCN(c2nc(-c3ccccc3)cc(C(F)(F)F)n2)CC1", "discrete.label": "t"}
{"molecule": "CS(=O)(=O)Nc1cccc(-c2cncnc2Nc2ccc(F)cc2)c1", "discrete.label": "f"}
{"molecule": "COc1ccc(C(=O)N2CCC3(CCN(Cc4ccc(C#N)cc4)CC3)CC2)cc1", "discrete.label": "f"}
{"molecule": "CCC1CCCCN1Cc1cc(OC)c(O)c([N+](=O)[O-])c1 (centres undefined)", "discrete.label": "f"}
{"molecule": "CC(C)N=c1cc2n(-c3ccc(Cl)cc3)c3ccccc3nc-2cc1Nc1ccc(Cl)cc1", "discrete.label": "f"}
{"molecule": "N#Cc1c(N2CCN(C(=O)c3ccccc3Cl)CC2)nc(-c2ccccc2)c2c1CCCC2", "discrete.label": "t"}
{"molecule": "COc1cccc(Nc2ncc3nc(-c4ccc(F)cc4)c(=O)n(CCC#N)c3n2)c1", "discrete.label": "f"}
{"molecule": "CN(C)CCCO[C@H]1[C@@H]2OC(C)(C)O[C@@H]2O[C@@H]1[C@H](O)CO", "discrete.label": "f"}
{"molecule": "c1ccc(-c2nnc(SCCC3OCCCO3)o2)cc1", "discrete.label": "t"}
{"molecule": "CCC(=O)N1CCN(C(=O)c2ccccc2)CC1", "discrete.label": "f"}
{"molecule": "CC1=c2c(oc3cc(O)c(Nc4c(C)cc(O)cc4O)c(C)c23)=CC(=O)C1=Nc1c(C)cc(O)cc1O", "discrete.label": "t"}
{"molecule": "COc1ccccc1CN1CCC2(CC1)CCN(C(C)=O)CC2", "discrete.label": "f"}
{"molecule": "COC(=O)CN(c1ccccn1)S(=O)(=O)c1ccccc1", "discrete.label": "f"}
{"molecule": "Cc1ccc(-n2nc3ccc(NC(=O)c4ccc5c(c4)OCO5)cc3n2)cc1", "discrete.label": "f"}
{"molecule": "O=C1C2C3c4ccccc4C(c4ccccc43)C2C(=O)N1c1nc(-c2ccccc2)cs1 (centres undefined)", "discrete.label": "t"}
{"molecule": "COC(=O)C1C(=O)C2=C(CC1C)NC(=O)CC2c1cccc(C)c1 (centres undefined)", "discrete.label": "t"}
{"molecule": "COC(=O)c1ccc(CCc2cc(O)ccc2O)cc1", "discrete.label": "t"}
{"molecule": "O=C(Cc1csc(Nc2nc(=S)[nH]c3ccccc23)n1)NCc1cccc(Cl)c1", "discrete.label": "t"}
{"molecule": "CNc1ncncc1-c1ccccc1OC", "discrete.label": "f"}
{"molecule": "c1cc(-c2sc(-c3ccncc3)c(-c3ccncc3)c2-c2ccncc2)ccn1", "discrete.label": "t"}
{"molecule": "COc1cccc(/C(O)=C2/C(=O)C(=O)N(c3ccccn3)C2c2ccc(OC)c(OC)c2)c1 (centres undefined)", "discrete.label": "f"}
